- target: Tyrosine-protein phosphatase non-receptor type 1 (Homo sapiens)
- Sequence (P18031 whole entry): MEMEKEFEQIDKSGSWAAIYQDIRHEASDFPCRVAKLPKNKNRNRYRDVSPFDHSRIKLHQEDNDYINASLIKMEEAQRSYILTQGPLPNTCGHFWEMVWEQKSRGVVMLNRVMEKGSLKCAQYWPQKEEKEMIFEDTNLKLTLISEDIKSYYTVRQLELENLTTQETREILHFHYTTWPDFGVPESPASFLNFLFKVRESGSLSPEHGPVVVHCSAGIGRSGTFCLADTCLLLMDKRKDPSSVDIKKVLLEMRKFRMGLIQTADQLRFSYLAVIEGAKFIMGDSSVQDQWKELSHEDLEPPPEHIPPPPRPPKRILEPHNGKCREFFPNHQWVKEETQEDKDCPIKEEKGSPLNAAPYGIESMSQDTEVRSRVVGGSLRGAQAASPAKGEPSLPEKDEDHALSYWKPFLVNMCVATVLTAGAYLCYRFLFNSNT
- methodNotes: Inhibition of human recombinant PTP1B expressed in Escherichia coli using para-nitrophenyl phosphate as substrate preincubated for 30 mins followed by substrate addition measured by […] analysis
resultType: Ki (nM)
// note: answer is a bare numeric in nM

Guide cases for Ki, answers given:
>  <molecule>
O=C(O)c1cc(-c2ccc(CC(C(=O)c3ccc(Cl)cc3)c3ccc(F)c(F)c3)cc2)no1 (centres undefined)

>  <Ki (nM)>
800

$$$$
>  <molecule>
COc1ccc(C(Cc2ccc(-c3cc(C(=O)O)on3)cc2)c2nc(-c3ccc(Cl)cc3)no2)cc1 (centres undefined)

>  <Ki (nM)>
300

$$$$
>  <molecule>
COc1ccc(-c2noc(C(Cc3ccc(-c4cc(C(=O)O)on4)cc3)c3ccc(F)cc3)n2)cc1 (centres undefined)

>  <Ki (nM)>
400

$$$$
>  <molecule>
COc1ccc(C(Cc2ccc(-c3nc(C(=O)O)cs3)cc2)c2nc(-c3cccc(F)c3)no2)cc1 (centres undefined)

>  <Ki (nM)>
500

$$$$

Q: Given O=C(O)c1csc(-c2ccc(CC(C(=O)c3ccccc3)c3ccccc3)cc2)n1 (centres undefined) , respond with its Ki.
A: 1200

Q: Given O=C(O)c1csc(-c2ccc(CC(C(=O)c3ccc(F)c(F)c3)c3ccc(F)cc3)cc2)n1 (centres undefined) , respond with its Ki.
A: 1800

Q: Given O=C(O)c1cc(-c2ccc(CC(C(=O)c3ccc(F)cc3)c3ccc(F)cc3)cc2)no1 (centres undefined) , respond with its Ki.
A: 1500

Q: Given O=C(O)c1ccc(-c2ccc(CC(C(=O)c3ccccc3)c3ccccc3)cc2)[nH]1 (centres undefined) , respond with its Ki.
A: 2900

Q: Given O=C(O)c1onc(-c2ccc(CC(C(=O)c3ccccc3)c3ccccc3)cc2)c1C(=O)O (centres undefined) , respond with its Ki.
A: 40000
